measured target: CAMKK2 (human) (UniProt Q96RR4)
Sequence (Q96RR4 whole entry, looked up): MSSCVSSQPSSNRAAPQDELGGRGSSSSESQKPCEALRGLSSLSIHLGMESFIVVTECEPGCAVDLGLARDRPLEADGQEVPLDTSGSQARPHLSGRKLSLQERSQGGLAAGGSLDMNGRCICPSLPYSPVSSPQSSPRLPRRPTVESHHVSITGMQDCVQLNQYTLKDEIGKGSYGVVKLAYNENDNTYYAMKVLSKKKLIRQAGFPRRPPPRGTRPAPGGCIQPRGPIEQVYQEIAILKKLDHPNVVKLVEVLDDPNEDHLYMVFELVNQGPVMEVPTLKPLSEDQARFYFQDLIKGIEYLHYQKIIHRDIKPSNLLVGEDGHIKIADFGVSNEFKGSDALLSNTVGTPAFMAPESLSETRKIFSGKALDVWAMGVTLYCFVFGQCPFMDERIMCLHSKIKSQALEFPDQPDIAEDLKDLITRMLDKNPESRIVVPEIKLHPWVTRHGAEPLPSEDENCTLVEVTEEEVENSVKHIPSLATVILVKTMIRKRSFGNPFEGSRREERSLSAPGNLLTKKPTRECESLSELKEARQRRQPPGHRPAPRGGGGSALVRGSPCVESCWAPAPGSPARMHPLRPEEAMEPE
assay notes: radiometric filter-binding kinase assay, Kinase HotSpot
test parameters: compound 0.5 µM; ATP 10 µM
measured metric: residual activity (%)
Kindly answer with a numeric value in %, unit omitted.

// below: answered compounds
- cpd smiles: "O=C1NC(=O)c2c1c1c3ccccc3[nH]c1c1[nH]c3cc(Br)ccc3c21"
  residual activity, %: 48.1
- cpd smiles: "N#CCCc1ccc2c(c1)-c1[nH]c3ccc([N+](=O)[O-])cc3c1CC(=O)N2"
  residual activity, %: 86.8
- cpd smiles: "FC(F)(F)c1ccc(/C=C/c2nc(COc3ccc(CCCCn4ccnn4)cc3)co2)cc1"
  residual activity, %: 101
- cpd smiles: "O=c1[nH]c2ccccc2n1C1CCN(Cc2ccc(-c3nc4cc5[nH]cnc5cc4nc3-c3ccccc3)cc2)CC1"
  residual activity, %: 112

Would you kindly look at the next entry?
Exercise: Need residual activity, item N/C(=N\N=C/c1ccc(-c2cccc([N+](=O)[O-])c2)o1)N[N+](=O)[O-]
Solution: 114

* * *

measured target: FES (human) (UniProt P07332)
Sequence (P07332 whole entry, looked up): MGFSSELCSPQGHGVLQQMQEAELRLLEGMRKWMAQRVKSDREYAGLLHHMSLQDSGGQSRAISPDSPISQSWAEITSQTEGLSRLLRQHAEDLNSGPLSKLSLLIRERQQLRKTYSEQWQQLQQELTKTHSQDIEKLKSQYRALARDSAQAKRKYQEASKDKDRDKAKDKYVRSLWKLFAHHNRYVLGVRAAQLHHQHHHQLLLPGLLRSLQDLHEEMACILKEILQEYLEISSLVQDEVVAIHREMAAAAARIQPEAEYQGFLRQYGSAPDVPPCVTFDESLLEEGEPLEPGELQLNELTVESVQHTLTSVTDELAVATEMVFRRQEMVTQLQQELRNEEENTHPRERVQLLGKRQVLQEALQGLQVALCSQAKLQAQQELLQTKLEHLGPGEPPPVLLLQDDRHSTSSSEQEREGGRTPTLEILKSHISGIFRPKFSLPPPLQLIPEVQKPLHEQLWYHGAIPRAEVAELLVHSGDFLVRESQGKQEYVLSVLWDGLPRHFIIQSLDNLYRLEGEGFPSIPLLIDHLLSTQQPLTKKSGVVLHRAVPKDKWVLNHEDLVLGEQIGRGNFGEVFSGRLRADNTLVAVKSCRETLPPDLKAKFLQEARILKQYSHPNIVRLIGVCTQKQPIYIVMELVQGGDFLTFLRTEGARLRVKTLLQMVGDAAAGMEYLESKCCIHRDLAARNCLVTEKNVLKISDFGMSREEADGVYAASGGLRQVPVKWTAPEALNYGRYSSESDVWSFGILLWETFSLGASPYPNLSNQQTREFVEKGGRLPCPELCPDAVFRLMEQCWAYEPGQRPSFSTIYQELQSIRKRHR
assay notes: radiometric filter-binding kinase assay, Kinase HotSpot
test parameters: compound 0.5 µM; ATP 10 µM
measured metric: residual activity (%)
Kindly answer with a numeric value in %, unit omitted.

// below: answered compounds
- cpd smiles: "FC(F)(F)c1ccc(/C=C/c2nc(COc3ccc(CCCCn4ccnn4)cc3)co2)cc1"
  residual activity / %: 102
- cpd smiles: "O=C(O)c1ccc2c3c1cccc3c(=O)n1c3ccccc3nc21"
  residual activity / %: 98.2
- cpd smiles: "N#Cc1c(NC(=O)c2cccc3ccccc23)sc2c1CCCC2"
  residual activity / %: 103

Exercise: Need residual activity, item CCCCc1c(-c2ccc(O)cc2)[nH]c2nccnc12
Solution: 64.5

Exercise: Need residual activity, item c1ccc(-c2cnc(Nc3ccc(OCCN4CCCC4)cc3)s2)cc1
Solution: 93.2

Exercise: Need residual activity, item CCOc1cc2ncnc(Nc3cccc(Br)c3)c2cc1OCC
Solution: 96.8

* * *

measured target: NTRK1 (human)
assay notes: radiometric filter-binding kinase assay, Kinase HotSpot
test parameters: compound 0.5 µM; ATP 10 µM
measured metric: residual activity (%)
Kindly answer with a numeric value in %, unit omitted.

// below: answered compounds
- cpd smiles: "COc1cc2c(cc1OC)-c1[nH]nc(Nc3cccc(F)c3)c1C2"
  result value: 98.8
- cpd smiles: "CCOc1cc2ncnc(Nc3cccc(Br)c3)c2cc1OCC"
  result value: 89.6
- cpd smiles: "Cc1cc(Nc2nc(-c3ccccc3)nc3ccccc23)n[nH]1"
  result value: 14.6

Exercise: Need residual activity, item O=c1[nH]c2ccccc2n1C1CCN(Cc2ccc(-c3nc4cc5[nH]cnc5cc4nc3-c3ccccc3)cc2)CC1
Solution: 99.4

Exercise: Need residual activity, item COc1cc2c(Nc3ccc(Br)cc3F)ncnc2cc1OCC1CCN(C)CC1
Solution: 104

* * *

measured target: PIM2 (human)
assay notes: radiometric filter-binding kinase assay, Kinase HotSpot
test parameters: compound 0.5 µM; ATP 10 µM
measured metric: residual activity (%)
Kindly answer with a numeric value in %, unit omitted.

- cpd smiles: "Cc1cc(Nc2nc(-c3ccccc3)nc3ccccc23)n[nH]1"
  measured target: "PIM2 (human)"
  units text: "%"
  residual activity: 92.7

Exercise: Need residual activity, item O=c1cc(N2CCOCC2)oc2c(-c3ccccc3)cccc12
Solution: 106

Exercise: Need residual activity, item COc1cccc(-c2cc(=O)c3ccccc3o2)c1N
Solution: 99.3

Exercise: Need residual activity, item N#C/C(=C1/Nc2ccccc2S1)c1ccnc(NCCc2cccnc2)n1
Solution: 91.2
